test system: Trypanosoma cruzi; experiment: Antitrypanosomal activity against amastigote and trypomastigote forms of Trypanosoma cruzi Tulahuen expressing beta-galactosidase gene infected in mouse L-929 cells assessed as inhibition of parasite growth after 7 days by colorimetric betagalactosidase assay; assay type: functional, organism-based; details: L929, 168 h
pIC50: −log10 of the molar value.
reported-property: pIC50

Some entries whose results are on file:
- NC(=S)N/N=C(/COc1ccc(Br)cc1)c1ccccc1: 4.99
- NC(=S)N/N=C(\COc1ccc(F)c(Cl)c1)c1ccc(Br)cc1: 5.05
- CC(C)(C)c1ccc(OC/C(=N\NC(N)=S)c2ccc(Br)cc2)cc1: 4.82
- NC(=S)N/N=C(\COc1cccc(Br)c1)c1ccc(Br)cc1: 3.83

[1] NC(=S)N/N=C(\COc1ccccc1Cl)c1ccc(Br)cc1
[2] NC(=S)N/N=C(/COc1ccc(Br)cc1)c1ccc(-c2ccccc2)cc1
Returns: the label, 1 or 2 , whose recorded pIC50 is the lower number. Use the label to indicate which entry you chose.
1
(1: 4.87, 2: 5.48)
